# Tested on: 27-mer model RNA sequence of the 16S A-site
# EXPERIMENTAL PROTOCOL: MASS mass spectrometry binding assay with 16S A-site 27-mer RNA
# Parameters: species or system prokaryotic
# CONDITIONS: ESI-FTICR, mixture of five aminoglycosides, 16S and 18S targets simultaneously
ENDPOINT NAME: complexes detected with the 16S A site 27mer RNA

Field: example entries. Status: answers known.
NC[C@H]1O[C@H](O[C@H]2[C@H](O)[C@@H](O[C@H]3O[C@H](CO)[C@@H](O)[C@H](N)[C@H]3O)[C@H](N)C[C@@H]2N)[C@H](N)[C@@H](O)[C@@H]1O [bekamycin, bekanamycin] = Weaker complexes
CN[C@@H]1[C@@H](O)[C@@H](O[C@@H]2[C@@H](O)[C@H](O[C@H]3OC(CN)=CC[C@H]3N)[C@@H](N)C[C@H]2N)OC[C@]1(C)O [sisomycin, sisomicin] = Weaker complexes
NC[C@@H]1O[C@H](O[C@H]2[C@@H](O)[C@H](O[C@@H]3[C@@H](O)[C@H](N)C[C@H](N)[C@H]3O[C@H]3O[C@H](CO)[C@@H](O)[C@H](O)[C@H]3N)O[C@@H]2CO)[C@H](N)[C@@H](O)[C@@H]1O [Paromomycin] = High affinity complexes
NC[C@@H]1O[C@H](O[C@H]2[C@@H](O)[C@H](O[C@@H]3[C@@H](O)[C@H](N)C[C@H](N)[C@H]3O[C@H]3O[C@H](CO)[C@@H](O)C[C@H]3N)O[C@@H]2CO)[C@H](N)[C@@H](O)[C@@H]1O[C@H]1O[C@H](CO)[C@@H](O)[C@H](O)[C@@H]1O [lividomycin] = High affinity complexes

# input Any idea what complexes detected with the 16S A site 27mer RNA was measured for NC[C@H]1O[C@H](O[C@H]2[C@H](O)[C@@H](O[C@H]3O[C@H](CO)[C@@H](O)[C@H](N)[C@H]3O)[C@H](N)C[C@@H]2N)[C@H](N)C[C@@H]1O [tobramycin] ?
# output Weaker complexes
